System: KM12 colon
Assay: NCI-60 one-dose screen, 48 h
Conditions: 10 µM unless noted
This is part of a sample that, as a whole, favours compounds with a hit. Of some 83,000 tested, about 20% had one in any assay. The source made the active and inactive calls. Rule for the calls: active = growth percent below 10; inactive = the rest.
Outcome field: choose from active, inactive

Sample answers from the record:
[
  {
    "Compound": "Cn1cc(-c2csc(-c3cn(CCN)c4ccc(F)cc34)n2)c2cccnc21",
    "System name": "KM12 colon",
    "Class assignment": "inactive"
  },
  {
    "Compound": "Fc1cccc(-c2[nH]nc3nc(Nc4cccnc4)sc23)c1",
    "System name": "KM12 colon",
    "Class assignment": "inactive"
  },
  {
    "Compound": "C/C(=N\\Nc1cc(C)c2ccccc2n1)c1ccccn1",
    "System name": "KM12 colon",
    "Class assignment": "active"
  }
]

Field: next compound
Exercise: I'd appreciate the recorded outcome for `Fc1ccc2nc(-c3cc(-c4ccc5c(c4)OCO5)n[nH]3)[nH]c2c1` from this test.
Key: inactive

----------
Test system: SW-620 colon
Assay: NCI-60 one-dose screen, 48 h
Conditions: 10 µM unless noted
This is part of a sample that, as a whole, favours compounds with a hit. Of some 83,000 tested, about 20% had one in any assay. Calls of active or inactive are those of the source. How the source made its calls: active means growth percent below 10; inactive means the rest.
Field 'call' accepts active, inactive

Exercise: Field: outcome | Entry: `CC(C)(C)c1ccc(OCCCCCCCN2CCNCC2)cc1`
Key: active

Exercise: State the result this test recorded for `C/C(=N\Nc1cc(C)c2cc(C)ccc2n1)c1ccccn1` .
Key: active

Exercise: Hey, what did the test say about `Brc1ccc2[nH]cc(-c3nc(-c4c[nH]c5ncccc45)cs3)c2c1` ?
Key: active

----------
Assign growth to each entry below.
Test system: CAKI-1 renal
Assay: NCI-60 one-dose screen, 48 h (100 = growth as untreated, 0 = no growth, -100 = all killed)
Conditions: 10 µM unless noted
About 83,000 compounds went through this panel and 20% of them were active in at least one assay; those are over-represented in the sample as a whole.
One number for each entry, in %.

In the examples that follow, each entry is paired with its recorded growth.
[
  {
    "Compound": "Cc1c(C)c2c(c(C)c1NC(=O)CCCCCCC(=O)O)CCC(C)(CCCC(C)CCCC(C)CCCC(C)C)O2 (stereo unspecified)",
    "growth (%)": 100
  },
  {
    "Compound": "COc1cc2c(cc1OC)C(=O)/C(=C/c1cc(-c3ccc4c(c3)OCO4)n[nH]1)C2",
    "growth (%)": 56.4
  },
  {
    "Compound": "COc1ccc(O)c(-c2cc(-c3ccc(Cl)cc3)c(C#N)c(=O)[nH]2)c1",
    "growth (%)": 73.3
  }
]

Dear reader, for each entry below, please note its growth.
1. CC(=O)NC1=C(C#N)C(c2ccccc2Cl)c2c(ccc3ccccc23)O1 (stereo unspecified)
2. Cc1cc2nc3c4cc(O)ccc4n(CCN(C)C)c3nc2cc1C
3. COC(=O)[C@]12CC[C@@H](C)[C@H](C)[C@@H]1C1=CC[C@@H]3[C@@]4(C)C=C(O)C(=O)C(C)=C4CC[C@@]3(C)[C@]1(C)CC2
4. CCN1CCN(C(=O)[C@@]2(C)CC[C@]3(C)CC[C@]4(C)C(=CC(=O)[C@@H]5[C@@]6(C)CC[C@H](OC7C[C@@H](O)[C@@H](O)C(C)O7)C(C)(C)[C@@H]6CC[C@]54C)[C@@H]3C2)CC1 (stereo partly specified)
5. O=C1CNCCN1

Key:
1. 37.2
2. -39
3. 33.4
4. 89.4
5. 93.1

Batch request: growth for each of the following compounds.
1. O=C(O)c1cccc2c1-c1ccc(Cl)cc1C2
2. O=C1NC(=Nc2ccc(S(=O)(=O)Nc3nccs3)cc2)S/C1=C\c1coc2ccccc2c1=O
3. COc1ccc(-c2nc3ccccn3c2-c2nc3ccc(Cl)cc3[nH]2)cc1
4. CN1CCN(CCOc2ccc(-c3cnc4c(-c5ccccc5F)cnn4c3)cc2)CC1

Key:
86.5
103
93.2
45.8

For every item below, please supply its growth.
1. C/C(=N\Nc1ccc2ccccc2n1)c1ccccn1
2. COc1ccc(/C=C(\C#N)c2cc3ccccc3n2S(C)(=O)=O)cc1
3. COc1ccc(C2c3ccccc3NC(=O)N2C2CCN(C)CC2)c(OC)c1 (stereo unspecified)
4. Cc1[c-]onc1C.Cc1[c-]onc1C.[Ag].[Ag].[NH-]S(=O)(=O)c1ccc(N=Nc2cc(N=Nc3ccc(S([NH-])(=O)=O)cc3)c3c(NC(=O)C(Cl)Cl)cccc3c2OC(=O)C(Cl)Cl)cc1

Key:
1. -10.9
2. 53.2
3. 102
4. 68.5

Return reported growth values for all items listed beneath this line.
1. C=C1C(=O)O[C@H]2[C@H]1CC/C(Cn1cc(-c3ccc(F)cc3)nn1)=C\CC[C@@]1(C)O[C@@H]21
2. N#CC1C(=N)Cc2ccccc2-c2ccccc21 (stereo unspecified)
3. N=C(N)c1ccc(S(N)(=O)=O)cc1

Key:
1: -12.9; 2: 29; 3: 92.5

Hey, quick one: what's growth for each of these?
1. CC1c2ccccc2N(S(=O)(=O)c2ccccc2)C1C (stereo unspecified)
2. CC(=O)Oc1ccccc1C(=O)/C=C/c1cccc([N+](=O)[O-])c1

Key:
1: 74.5; 2: 67.6
